composite z-score values for the compounds below.
assay: anti-His antibody binders, primary screen, artefact control for SMM control protein annotation, biochemical, small-molecule microarray, 635 nm fluorescence (AID 1128); conditions: anti-His Alexa647 antibody binding, higher = more signal;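 further: score merges feature fluorescence with signal-to-noise for each printed compound spot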
A bare number is all that is needed in reply.

Recorded results for 5 compounds are shown here.
# COMPOUND_SMILES, composite z-score
records = [
    ("COC(=O)[C@@]1(Cc2ccccc2)N=C(c2ccc(OCCCO)cc2)O[C@H]1c1ccccc1", 2.44),
    ("C=CC[C@]1(C(=O)NCc2ccccc2)N=C(c2ccc(OCCCO)cc2)O[C@H]1c1ccccc1N=[N+]=[N-]", 2.39),
    ("CC(C)NC(=O)[C@@]1(c2ccc([N+](=O)[O-])cc2)CC(=O)N(C2CCCCC2)[C@@H]1c1ccc(CO)cc1I", -0.0568),
    ("COCCOC(=O)N1C(=O)[C@@]2(c3cc(C#CCNC(N)=O)ccc31)[C@H](C(=O)Nc1nc3ccccc3s1)[C@H]1C(=O)O[C@H](c3ccccc3)[C@H](c3ccccc3)N1[C@@H]2c1ccc(OCCO)cc1", -0.187),
    ("C[N+](C)(C)CCCCNC(=O)[C@H]1C[C@H]2C(=O)N3CCC[C@H]3C(=O)N2[C@H]1c1cccc(OCCO)c1", 3.3),
]

Task: Return value of composite z-score for input COC(=O)C(CC#Cc1ccc2c(c1)[C@]1(C(=O)N2)[C@H](c2ccc(OCCO)cc2)N2[C@H](c3ccccc3)[C@H](c3ccccc3)OC(=O)[C@H]2[C@@H]1C(=O)Nc1nc2ccccc2s1)C(=O)OC , no commentary.
Output: 1.6

Task: Please give the documented composite z-score of C=CCOC(=O)[C@@H]1[C@H]2C(=O)O[C@H](c3ccccc3)[C@H](c3ccccc3)N2[C@H](c2ccc(OCCOC(=O)[C@@H]3C[C@@H]4C(=O)NCC(=O)N4[C@@H]3c3ccc(O)cc3)cc2)[C@@]12C(=O)Nc1ccc(I)cc12
Output: 1.88

---

assay: E. coli acrAB mutant growth effects, primary screen, E. coli filamentation inducers, strain DRC39, OD650, 24 h (AID 1178); details: higher = more signal, called active from +8 up or from −8 down;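 further: growth measured as culture turbidity by optical density at 650 nm; test concentration not given here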
Please enter condition met where z-score is greater than or equal to 0.5, and condition not met where it is lower.

# MOLECULE, CLASS_ASSIGNMENT
records = [
    ("C=C(CCCC)/C(=C/C[C@@H](OC(=O)c1ccncc1)c1ccc(OCCO)cc1)c1cc(C(=O)OC)ccc1OC", "condition met"),
]

Task: Dear colleague, could you confirm whether COc1ccc([Si](C)(C)[C@H]2[C@H](CC(=O)N3Cc4ccccc4C[C@H]3CO)O[C@@]3(C(=O)N(Cc4cccc(N5CCC5=O)c4)c4ccccc43)[C@@H]2C)cc1 has z-score at or above 0.5?
Output: condition met

Task: Say whether C=CCNC(=O)[C@H]1[C@@H]2C(=O)O[C@@H](c3ccccc3)[C@@H](c3ccccc3)N2[C@@H](c2ccccc2OCCO)[C@]12C(=O)Nc1ccc(C#CCCO)cc12 shows z-score of 0.5 or more.
Output: condition not met

Task: Does the molecule [N-]=[N+]=NCc1ccccc1C[C@]1(C(N)=O)COC(c2ccc(OCCCO)cc2)=N1 have recorded z-score that is 0.5 or more?
Output: condition met

Task: Determine whether this molecule has z-score no lower than 0.5: COCCOC(=O)N1C(=O)[C@@]2(c3cc(C#CCC(C(=O)OC)C(=O)OC)ccc31)[C@H](C(=O)N1CCN(c3ncccn3)CC1)[C@H]1C(=O)O[C@H](c3ccccc3)[C@H](c3ccccc3)N1[C@@H]2c1ccccc1OCCO
Output: condition not met

Task: Textbook exercise: given the entry CC#CC(=O)Oc1ccccc1C=CC(=O)OCC , state whether its z-score is greater than or equal to 0.5.
Output: condition not met

Task: Test whether the molecule CO[C@H]1O[C@H](CO)[C@@H](OC(=O)Nc2ccc(Oc3ccccc3)cc2)[C@H](OC(=O)Nc2ccc3c(c2)OCO3)[C@H]1OC(=O)Nc1ccc2c(c1)OCO2 records z-score of 0.5 or higher.
Output: condition met

Task: Hi team, for C=CCC(OC(C)=O)[C@@H]1[C@@H](N(Cc2cc3ccccc3o2)C(=O)c2cccc3ccccc23)c2cc(OCCCO)ccc2N1C(=O)c1ccc(-c2ccccc2)cc1 (some centres not stated) , is the recorded z-score at or above 0.5?
Output: condition met
